MEASURED_TARGET: Gastrin/cholecystokinin type B receptor (Cavia porcellus)
RUN_DESCRIPTION: Compound was evaluated for functional activity on Cholecystokinin type B receptor (CCK-B) receptor carried out on guinea pig stomach cells.
PROPERTY_LABEL: IC50 (nM)

CC(C)Oc1cccc(-n2c(NNC(=O)Nc3ccc(Br)cc3)nc3ccccc3c2=O)c1 54

a = CCOC(=O)c1cccc(NC(=O)NNc2nc3ccccc3c(=O)n2-c2cccc(OC(C)C)c2)c1
b = CCOC(=O)c1cccc(NC(=O)NNc2nc3ccccc3c(=O)n2-c2ccc(Cl)cc2)c1
// which entry reports the smaller IC50, a or b ? State your choice using its label.
a
(a: 22 nM, b: 33 nM)
